Reported OD (A492) is given for each of the following binders.
target: bovine serum albumin (BSA) (bovine) (UniProt P02769); test: EIA, BSA background
Sequence (P02769 25-607 limits assumed): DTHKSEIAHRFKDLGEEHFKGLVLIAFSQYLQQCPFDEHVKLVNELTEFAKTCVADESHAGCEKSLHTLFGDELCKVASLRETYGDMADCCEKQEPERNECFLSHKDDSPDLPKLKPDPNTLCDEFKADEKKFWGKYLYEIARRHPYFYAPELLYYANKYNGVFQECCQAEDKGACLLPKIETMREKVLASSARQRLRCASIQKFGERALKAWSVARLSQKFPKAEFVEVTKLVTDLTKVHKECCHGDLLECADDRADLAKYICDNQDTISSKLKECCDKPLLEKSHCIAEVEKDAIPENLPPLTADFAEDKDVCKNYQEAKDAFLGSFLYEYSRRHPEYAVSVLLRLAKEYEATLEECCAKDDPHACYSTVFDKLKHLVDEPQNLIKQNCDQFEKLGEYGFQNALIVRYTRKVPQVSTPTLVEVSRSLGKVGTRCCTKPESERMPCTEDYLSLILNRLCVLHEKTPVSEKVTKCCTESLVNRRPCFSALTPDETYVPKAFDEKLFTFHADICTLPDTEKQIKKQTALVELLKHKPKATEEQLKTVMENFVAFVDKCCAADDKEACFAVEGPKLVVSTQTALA

# binder, unit-label, OD (A492)
records = [
    ("HCV 208A-422 (antibody, V domains shown) VH: DVQLQESGPGLVNPSQSLSLTCSVTGYSITSGYYWIWIQQSPGNKLEWMGYIKYDGGNNYSPSLKNRISIARDTSKNQCFLKLNSVTIEDTATYYCTRGSDSFDYWGQGTTLTVSS VL: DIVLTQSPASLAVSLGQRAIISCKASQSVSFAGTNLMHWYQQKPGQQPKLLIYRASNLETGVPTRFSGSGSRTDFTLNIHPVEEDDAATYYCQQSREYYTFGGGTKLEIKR", "OD", 0.11),
    ("HCV 208A-210 (antibody, V domains shown) VH: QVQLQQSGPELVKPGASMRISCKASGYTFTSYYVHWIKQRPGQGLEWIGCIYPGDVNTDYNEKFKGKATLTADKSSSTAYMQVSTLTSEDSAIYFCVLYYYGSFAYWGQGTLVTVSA VL: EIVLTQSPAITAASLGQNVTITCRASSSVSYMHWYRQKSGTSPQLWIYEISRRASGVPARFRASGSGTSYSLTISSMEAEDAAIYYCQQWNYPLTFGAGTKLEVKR", "OD", 0.08),
]
